target: T1, recombinant, soluble human ASGR-1 (human, UniProt P07306 62-291)
T1 construct: biotinylated in the binning assay; also called soluble huASGR-1; Soluble ASGR-1 (Amgen)
T1 sequence: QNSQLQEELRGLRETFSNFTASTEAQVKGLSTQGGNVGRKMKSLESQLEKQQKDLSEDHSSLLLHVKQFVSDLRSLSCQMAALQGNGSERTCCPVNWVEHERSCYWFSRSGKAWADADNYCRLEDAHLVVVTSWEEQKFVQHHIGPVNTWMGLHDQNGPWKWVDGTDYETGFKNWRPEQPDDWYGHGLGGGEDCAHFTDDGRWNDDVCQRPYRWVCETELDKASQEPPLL
assayNotes: Octet BLI dissociation, pH 5.6 minus calcium
valueType: % Change Compared to pH 7.4 + Calcium

# binder, % Change Compared to pH 7.4 + Calcium
measured = [
    ("199E3 (antibody, V domains shown, hybridoma mAb) VH: QVQLQQWGAGLLKPSETLSLTCAVYGGSFSGYFWTWIRQPPGKGLEWIGEINHSGSTNYNPSLKSRVTISVDTSKNQFSLKLSSVTAADTAVYYCARDYGADYWGQGTLVAVSA VL: DIQMTQSPSSLSASVGDRVTITCRASQGIRNDLGWYQQKPGKAPKRLISSASSLQRGVPSRFSGSGSGTEFTLTISSLQPEDFATYYCLQHKRYPLTFGGGTKVEIK", "-4%"),
    ("197F2 (antibody, V domains shown, hybridoma mAb) VH: QVQLVESGGGVVQPGRSLRLSCAASGFTFSSYGMHWVRQAPGKGLEWVAVIWYDGSNKNYADSVKGRFTISRDNSKNTLYLQMNSLRAEDTAVYYCARDQGVGYDGLDVWGQGTTVTVSS VL: DIQMIQSPSSLSASVGDRVTITCRTSQGIGNYLAWFQQKPGKAPKSLLYKTSSLQSGVPSKFSGSGSGTDFTLTISSLQPEDFATYYFQQYITYPLTFGGGTKVEIK", "-6%"),
    ("224G1 (antibody, V domains shown, hybridoma mAb) VH: QVQLVQSGAEVKKPGASVKVSCKASGYTFTGYYIHWVRQAPGQGLEWMGWINPYSGDTNYAQKFQGRVTMTRDTSISTAYMELSRLRFDDTAVFYCARDWGGYSSYYYGMDVWGQGTTVTVSS VL: DIVMTQTPLSLSVTPGQPASISCKSGQSLLHSDGKTFLSWYLQKPGQPPQLLIYEISNRFSGVPDRFSGSGSGTDFTLKISRVEAEDVGIFYCMQSTQLPRTFGQGTKVEIK", "65%"),
    ("147D10 (antibody, V domains shown, hybridoma mAb) VH: EVQLLESGGGLVQPGGSLRLSCAASGFTFSSYAMSWVRQAPGKGLEWVSAISGRGGNTFYADSVKGRFTISRDNSKNTLYLQMNSLRAEDTAVYYCAKKDYDYVWGSPYFDYWGQGTLVTVSS VL: DIQMTQSPASVSASVGDRVTITCRASQNISNWLTWYQQKPGKAPKLLIYAASSLQSGVPSRFSGSGSGTDFTLSISSLQPEDFATYYCQQTDSFPFTFGPGTKVDVK", "11%"),
]

### Prompt Given the entry 66H11 (antibody, V domains shown, hybridoma mAb) VH: QVQLVQSGAEVKKPGASVKVSCKASGYTFATYGISWVRQAPGQGLEWMGWISAYNGNTNYAQKLQGRVTMTTDTSTSTAYMELRSLRSDDTAVYYCARGEAVAVFDPWGQGTLVTVSS VL: DIQMTQFPSSLFAFVGDRVTITCPASQGISNYLAWFQQKPGKAPKSLIYGAFNLHSGVPSKFSGSGFGTDFTLTINSLQPEDFANYYCQQYSCYPFTFGHGTKVDIK , report its measured % Change Compared to pH 7.4 + Calcium.
### Response 52%

### Prompt What do you have for 63A10 (antibody, V domains shown, hybridoma mAb) VH: EVQLVESGGGLVQPGGSLRLSCAASGFTFSSYSMNWVRQAPGKGLEWVSYISSSTSTIYYAASVKGRFTISRDNAKNSLYLQMNSLRDEDTAVYYCARDHRYYDSSGYYSDAFDIWGQGTMVTVSS VL: NFMLTQPHSVSESPGKTVTISCTRSNGSIVSNYVQWYQQRPGSSPTTVIYEDKRRPSGVPDRFSGSIDSSSNSASLTISGLKTEDEADYYCQSYDSINVVFGGGTKLTVL ?
### Response 47%

### Prompt Try this binder next: 4A2 (antibody, V domains shown, hybridoma mAb) VH: QVQLVQSGTEVKKPGASVKVSCKASGYTFTNYDINWVRQATGQGLEWMGWMHPNSGNTGYAQKFQGRVTLTRNTSISTAYMELSSLRSEDTAVYYCASSSGWYYFDYWGQGTLVTVSS VL: DIVMTQSPDSLAVSLGERATINCKSSQSILHSSNNNNYLAWFQQKPGQPPKLLLYWASTRESGVPDRFSGSGSGTDFTLTISSLQPEDVAVYYCQQYYNTPVTFGPGTKVGIK
### Response 1%

### Prompt Would you kindly repeat that for 191G10 (antibody, V domains shown, hybridoma mAb) VH: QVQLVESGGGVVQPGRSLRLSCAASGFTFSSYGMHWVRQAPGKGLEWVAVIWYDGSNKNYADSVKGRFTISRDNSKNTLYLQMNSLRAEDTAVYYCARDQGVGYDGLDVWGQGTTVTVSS VL: DIQMTQSPSSLSASVGDRVTITCRTSQGIGKYLAWFQQKPGKAPKSLLYKVSSLQSGVPSKFSGSGSGTDFTLTISSLQPEDFATYYCQQYMTYPLTFGGGTKVEIK ?
### Response -5%

### Prompt And 191E10 (antibody, V domains shown, hybridoma mAb) VH: QVQLVESGGGVVQPGRSLRLSCAASGFTFSSYGMHWVRQAPGKGLEWVAVIWYDGSNKNYADSVKGRFTISRDNSKNTLYLQMNSLRAEDTAMYYCARDQGVGYDGLDVWGQGTSVTVSS VL: DIQMTQSPSSLSASVGDRVTITCRASQGIGKYLAWFQQKPGKAPKSLIYAASSLQSGVPSKFSGSGSGTDFTLTISSLQPENFATYYCQQYSTYPLTFGGGTKVEIK ?
### Response -9%

### Prompt 208A2 (antibody, V domains shown, hybridoma mAb) VH: QVQLQESGPGLVKPSETLSLNCTVSGGSIRSYYWSWIRQPAGKGLEWIGRIYTSGSTDYNPSLKSRITMSVDTSKNQFSLKLSSVTAADTAVYYCARGFGDWDYWGQGTLVTVSS VL: DIQMTQSPSSLSASVGDRVTITCRTSQGIRNDLGWYQQQPGKTPKRLIYAASSLLSGVPSRFSGSRSGTDFTLTISSLQPEDFATYYCLQYNSYPPTFGQGTRLEIK ?
### Response -5%
